- assay.comment: Aqueous solubility
- Format: physicochemical
- measurement.context: aqueous buffer, kinetic from dmso stock; buffer pH 2.2, 24 h shaking, 2.5% DMSO
quantity.name: solubility at 24 h (µg/mL)

As a guide, the following entries are already answered.
structure.notation	number
COc1ccc(-c2cccc3c2CC[C@H]3Nc2ccc([C@H]3C[C@@H]3C(=O)O)nc2)cc1F	62
Cc1cc(-c2nnn(C)n2)cc(C)c1-c1cccc2c1CC[C@H]2Nc1ccc([C@H]2C[C@@H]2C(=O)O)nc1	68
Cc1cc(OCCC(C)(C)O)cc(C)c1-c1ccc(F)c2c1CC[C@H]2Nc1ccc([C@H]2C[C@@H]2C(=O)O)nc1	100
Cc1cc(OCCCS(C)(=O)=O)cc(C)c1-c1ccc(F)c2c1CC[C@H]2Nc1ccc([C@H]2C[C@@H]2C(=O)O)nc1	97

a = Cc1cc(O[C@@H]2COC[C@H]2O)cc(C)c1-c1ccc(F)c2c1CC[C@H]2Nc1ccc([C@H]2C[C@@H]2C(=O)O)nc1
b = Cc1cc(OCCC(C)(C)O)cc(C)c1-c1cccc2c1CC[C@H]2Nc1ccc([C@H]2C[C@@H]2C(=O)O)nc1
Compare the recorded solubility at 24 h of a and b ; state which is larger. To answer, give the label that identifies your chosen option. a
(a: 121 µg/mL, b: 84 µg/mL)

====

- assay.comment: Aqueous solubility
- Assay type: physicochemical
- measurement.context: buffer pH 2.2, 24 h shaking, 2.5% DMSO
- Method: Starting from a 10 mM DMSO stock solution aliquots are diluted with acetonitrile/water (1/1) or buffer, respectively. After 24 h of shaking, the solutions are filtrated and analyzed by LC-UV. The amount dissolved in buffer is compared to the amount in the acetonitrile solution.
quantity.name: Solubility at pH value 2.2 (μg/mL)

compound	quantity.name	number
Cc1cc(O[C@@H]2CCOC2)cc(C)c1-c1ccc(F)c2c1CC[C@H]2Nc1ccc([C@H]2C[C@@H]2C(=O)O)nc1 [Example 12]	Solubility at pH value 2.2	105
CC(C)c1ccccc1-c1ccc(F)c2c1CC[C@H]2Nc1ccc([C@H]2C[C@@H]2C(=O)O)nc1 [Example 36]	Solubility at pH value 2.2	91
Cc1cc(OCC2(C)COC2)cc(C)c1-c1ccc(F)c2c1CC[C@H]2Nc1ccc([C@H]2C[C@@H]2C(=O)O)nc1 [Example 15]	Solubility at pH value 2.2	120
Cc1cc(OCC2(O)CCOCC2)cc(C)c1-c1ccc(F)c2c1CC[C@H]2Nc1ccc([C@H]2C[C@@H]2C(=O)O)nc1 [Example 37]	Solubility at pH value 2.2	119
Cc1cnc(-c2cc(C)c(-c3ccc(F)c4c3CC[C@H]4Nc3ccc([C@H]4C[C@@H]4C(=O)O)nc3)c(C)c2)nc1 [Example 21]	Solubility at pH value 2.2	91
Cc1cc(OCC2CCOC2)cc(C)c1-c1ccc(F)c2c1CC[C@H]2Nc1ccc([C@H]2C[C@@H]2C(=O)O)nc1 (stereo partly shown) [Example 32]	Solubility at pH value 2.2	123
CNC(=O)c1cc(C)c(-c2ccc(F)c3c2CC[C@H]3Nc2ccc([C@H]3C[C@@H]3C(=O)O)nc2)c(C)c1 [Example 27]	Solubility at pH value 2.2	112
Cc1cc(C(=O)O)cc(C)c1-c1ccc(F)c2c1CC[C@H]2Nc1ccc([C@H]2C[C@@H]2C(=O)O)nc1 [Example 23]	Solubility at pH value 2.2	97

The origin of these recorded values is patent US10125101B2.
